# Tested on: U251 CNS
# PROCEDURE SUMMARY: NCI tumour cell line growth inhibition, 48 h
METRIC: TGI

> print(dat)
                                   compound   result
1  C[C@H]1[C@H](OC(=O)CCC(=O)O)O[C@@H]2O[C@]3(C)CC[C@H]4[C@H](C)CC[C@@H]1[C@@]24OO3  18.5 µM

Could you tell me TGI for each of these compounds? They are listed below.
1. O=[N+]([O-])c1ccc(Cl)cc1-n1nc(-c2ccccc2)cc1-c1ccccc1
2. Cc1ccc(S(=O)(=O)N2CCCSCCSCCCSCC2)cc1
3. O/N=C1\CCc2cc(-c3nc(C4CCNCC4)[nH]c3-c3ccncc3)ccc21
4. COC(=O)[C@]12CC[C@@H](C)[C@H](C)[C@@H]1C1=CC[C@@H]3[C@@]4(C)CC(=O)[C@H](O)[C@@]5(C)COC(=C45)C[C@@]3(C)[C@]1(C)CC2
5. CCCCN(CCCC)C(=O)C(=O)CC(=O)c1ccc(Br)cc1
6. Cc1cc2nc(N3C(=O)/C(=C/c4cccc([N+](=O)[O-])c4)N=C3c3ccccc3)sc2cc1C
7. CSC(SC)=C1C(=O)NN=C1C

A:
1: > 100 µM; 2: > 100 µM; 3: > 25 µM; 4: 31.9 µM; 5: > 100 µM; 6: 58 µM; 7: > 100 µM

* * *

# System: NCI-H226 lung
# PROCEDURE SUMMARY: NCI tumour cell line growth inhibition, 48 h
Provide the recorded TGI for the entries that follow.

Here's what some known entries look like.
> print(dat)
                        structure.as.smiles    result
1            O=C1C=C(N2CCCC2)C=C(N2CCCC2)C1  > 100 µM
2  O=[N+]([O-])c1ccc(Cl)cc1-n1nc(-c2ccccc2)cc1-c1ccccc1  > 100 µM
3                 O=c1c(Cl)nnc2sc3ccccc3n12  > 100 µM
4  CN(C)CCN1C(=O)CC[C@@]2(C)C1=CC[C@@H]1[C@@H]2CC[C@@]2(C)[C@H]1CC[C@]2(C)O  > 100 µM

Q: Query TGI on NCI-H226 lung for COc1ccc2c(c1)c1nn(CCN(C)C)c3ccc4c(=O)n(CCN(C)C)c(=O)n2c4c13
A: 1.1 µM

* * *

Provide the recorded GI50 for the entries that follow.
# Test system: OVCAR-5 ovarian
# PROCEDURE SUMMARY: NCI tumour cell line growth inhibition, 48 h

Could you tell me GI50 for each of these molecules? They are listed below.
1. CCOC(=O)c1cnc(SCc2ccc(Cl)c(Cl)c2)nc1N1CC1
2. CC(=O)c1ccc(Nc2cc(-n3ccnc3)nc3ccccc23)cc1
3. Cc1ccc(S(=O)(=O)NC(CCC(=O)Nc2ccc(Cl)cc2)C(=O)Nc2ccc(Cl)cc2)cc1 (centres undefined)
4. O=c1c(Cl)nnc2sc3ccccc3n12
5. CCCCCCCCCCCCc1ccc(C(=O)/C=C/C(=O)O)cc1
6. COc1cc2c3c(n(C)c(=O)c2cc1OC)-c1cc2c(cc1/C3=C\CCCCN)OCO2
7. COc1ccccc1C(=O)/C=C/c1cc2cccc(OC)c2[nH]c1=O
8. OB([O][Hg][c]1ccccc1)[O][Hg][c]1ccccc1

A:
4.67 µM
> 100 µM
4.31 µM
54.1 µM
10.3 µM
15.5 µM
0.321 µM
1.88 µM
